Cited source: ChEMBL document CHEMBL1201862

Exercise: state measured GI50 for each of the molecules provided.
System: NCI-H23
Test: NCI tumour cell line growth inhibition, 48 h
Calls of active or inactive are those of the source. No stated cut-off is given here; in the data, active = GI50 up to about 1.1 µM and inactive = higher.

Query: // returns reported GI50 for input Sc1ncc2[nH]nnc2n1
Response: > 100 µM (inactive)

Query: Would you kindly repeat that for Cc1cc(S(=O)(=O)Nc2nc3cc(-c4ccc(Cl)cc4)sc3c(=O)n2N)c(S)cc1Cl ?
Response: 59.8 µM (inactive)

Query: What about C[n+]1cn(CC(=O)c2ccccc2)c(C(N)=O)c1N ?
Response: > 100 µM (inactive)

Query: Okay, and Cn1c(-c2cccs2)cc(-c2ccccc2)c1-c1cccs1 ?
Response: 4.75 µM (inactive)

Query: Moving on to the next molecule: CC(=O)OC12COC1CC(O)C1(C)C(=O)C(O)C3=C(C)C(O)CC(O)(C(OC(=O)c4ccccc4)C21)C3(C)C (stereo not given)
Response: 3.36 µM (inactive)

* * *

Test system: K562
Assay: NCI tumour cell line growth inhibition, 48 h
Calls of active or inactive are those of the source. Cut-off read from the data, not from the text of the source: active = GI50 up to about 1.1 µM and inactive = higher.
Hi! Could you answer with just one of these? active, inactive

Query: Lab log entry: Nc1nccc2c1ncn2C1C=C(CO)C(O)C1O (stereo not drawn) — outcome as called in the assay?
Response: inactive

Query: // same read-out, input: c1ccc(-c2csc3ncn4cnnc4c23)cc1
Response: inactive

Query: Same question, O=C1Nc2cccc3ncn(c23)C2=C1CCCC2 this time
Response: inactive

Query: Ok, now CC(=O)Nc1ccc(Nc2cc(=O)n(C)c(=O)[nH]2)cc1
Response: inactive

Query: // repeat for C=C(C)C1CC2(C)C(C)CC(OC(=O)/C(C)=C\C)CC2C(OC(=O)/C(C)=C\C)C1O (stereo not drawn) and report
Response: inactive

Query: Proceed to CC(C)(C)OC(=O)NCCCCC(NC(=O)OCc1ccccc1)C(N)=O (stereo not drawn)
Response: inactive

Query: Note, next up: COC(=O)/C(=N/O)C(C(=O)C=C(C)C)C(=O)C(=O)Nc1nc2ccc([N+](=O)[O-])cc2s1 (stereo not drawn)
Response: inactive

Query: What do you get for C=CCOn1c(C=C)nc2c(C)cccc21 ?
Response: inactive

Query: // same read-out, input: COc1ccc2c(c1)CCCC1C3=NCCC3(C)CSC21 (stereo not drawn)
Response: inactive

Query: Another: COc1cc(/C=C(\C#N)C(N)=C(C#N)C#N)cc(O)c1O
Response: inactive

Query: Field entry: C=C(C)[C@@]1(O)O[C@H]2C[C@@]3(C)OC(=CC3=O)/C(C)=C\[C@@H]3OC(=O)[C@@]1(C)[C@H]32
Response: inactive

Query: Likewise for Clc1ccc2oc(CCc3ccccc3)nc2c1 ?
Response: inactive

Query: Now the compound CCOC(=O)C(NC(=O)CC)(Nc1ccc(S(=O)(=O)Nc2ccc(OC)nn2)cc1)C(F)(F)F (stereo not drawn)
Response: inactive

Query: Next record, please: NC(=O)NC(=O)Nc1ccc(Br)cc1
Response: inactive

Query: Request: N#CC(C(=O)CCCC(=O)Nc1ccccc1[N+](=O)[O-])c1c(Cl)cccc1Cl (stereo not drawn)
Response: inactive

Query: Repeat with Cc1c(C)c2ccc(OC(C)C(=O)O)cc2oc1=O (stereo not drawn)
Response: inactive

Query: Quick one: COC(=O)CCC1(C)C2CCC1/C(=N/O)C2 (stereo not drawn)
Response: inactive

Query: Further, for Cn1c(-c2cccs2)cc(-c2ccccc2)c1-c1cccs1 ?
Response: inactive

Query: Next: O=C(NCc1ccccc1)c1nn[nH]c1O
Response: inactive

Query: Now the same for O=c1c2ccccc2[nH]c(=S)n1-c1ccc(/N=N/c2cccc3c(O)cccc23)cc1
Response: inactive

Query: What do you have for COC(=O)c1cc2c(n1S(=O)(=O)c1ccc(C)cc1)C(=O)C(=O)c1[nH]cc(C(=O)OCc3ccccc3)c1-2 ?
Response: active

Query: Now give it for CCOC(=O)CCCN too.
Response: inactive

Query: What about this compound? CCOC(=O)C1=C(Nc2ccc(Cl)cc2Cl)OCC1=O
Response: inactive

* * *

Tested on: T47D
Assay: NCI tumour cell line growth inhibition, 48 h
Calls of active or inactive are those of the source. Rule as the data show it: active = GI50 up to about 1.1 µM and inactive = higher.
Pick one and only one: active, inactive

Query: Please let me know the test result on file for NC(=O)c1cn(C2OC(CO)C(O)C2O)c2nc[n+]([O-])c(N)c12 (stereo not given) .
Response: active

Query: How about CC(C)CC1NC(=O)C(C(C)C)NC(=O)CC(C)COC(=O)C(CC(C)C)N(C)C(=O)C(C(C)C)NC(=O)C(C(C)C)OC1=O (stereo not given) ?
Response: inactive

Query: Field entry: Cc1cc(S(=O)(=O)Nc2nc3cc(-c4ccc(Cl)cc4)sc3c(=O)n2N)c(S)cc1Cl
Response: inactive

Query: Similarly, O=C(O)c1ccccc1C1c2ccccc2Oc2ccccc21 ?
Response: inactive

Query: Same question, Nc1ncc2c(n1)-c1ccccc1OC2NC1CC1 (stereo not given) this time
Response: inactive

Query: Likewise for COc1cc(/C=C(\C#N)C(N)=C(C#N)C#N)cc(O)c1O ?
Response: inactive

Query: Same lookup for COC(=O)C1=C(C(=O)OC)C(OO)(c2ccccc2)OC1=O (stereo not given) , please.
Response: inactive

Query: Would you kindly repeat that for COc1c(OC(C)=O)c(OC(C)=O)cc2c1-c1ccc(SC)c(=O)cc1C(NC(C)=O)CC2 (stereo not given) ?
Response: inactive

Query: Then this compound: Cc1c(O)c(C)c2c(C)cn(C(=O)C(C)(C)C)c2c1C
Response: inactive

Query: Please answer likewise for O=C1[C@H](O)[C@@H]2CCC[C@@]23CCCN13
Response: inactive

* * *

Tested on: LXFL 529
Assay: NCI tumour cell line growth inhibition, 48 h
The source made the active and inactive calls. Cut-off read from the data, not from the text of the source: active = GI50 up to about 1.1 µM and inactive = higher.
Give one outcome, nothing more. List: label 1 (active), label 0 (inactive)

Query: I'd appreciate the recorded outcome for O=c1[nH]c(=O)n(C2CC(O)C(CO)O2)cc1C#Cc1c(F)c(F)c(F)c(F)c1F (stereo not given) from this test.
Response: label 0

Query: Further, for COc1ccc(N2C(=O)/C(=C(\C)c3cc4ccccc4oc3=O)N=C2c2cc([N+](=O)[O-])ccc2Cl)cc1 ?
Response: label 0

Query: And for COc1cc([C@@H]2c3cc4c(c(O)c3C[C@H]3COC(=O)[C@@H]32)OCO4)cc(OC)c1O ?
Response: label 1

Query: Also Cc1c(C)c(CC(=O)N2CC2)c(C)c(C)c1CC(=O)N1CC1 ?
Response: label 0

Query: # iterate: CC1=C(/C=C/C(C)=C/C2CC(N(C)C)=CC(=O)O2)C(C)(C)CCC1 (stereo not given)
Response: label 0

Query: Proceed to CC(CC(=O)Nc1ccc(NC(=O)CC(C)/N=N\C(N)=S)cc1)/N=N\C(N)=S (stereo not given)
Response: label 0

Query: Queued: COc1ccccc1OCC(COC(=O)Nc1ccccc1)OC(=O)Nc1ccccc1 (stereo not given)
Response: label 0

Query: Subsequent entry: Clc1cccc(N2CCN(CCCN3CCc4c([nH]c5ccccc45)C3c3cccnc3)CC2)c1 (stereo not given)
Response: label 0

Query: Try this compound next: COc1nc2c(nc(N)n2C2OC(CO)C(O)C(O)C2O)c(=O)n1C (stereo not given)
Response: label 0

Query: Okay, and CC(=O)Nc1ccc(SC#N)c2c(NC(C)=O)cccc12 ?
Response: label 0

Query: Next entry: c1cc(C2O[C@H]3CCCN3[C@@H]2c2ccncc2)ccn1 (stereo not given in full)
Response: label 0

Query: Moving on to the next compound: CC(C)(C)CC(C)(C)c1cc2c(O)c(c1)Cc1cc(C(C)(C)CC(C)(C)C)cc(c1O)Cc1cc(C(C)(C)CC(C)(C)C)cc(c1O)Cc1cc(C(C)(C)CC(C)(C)C)cc(c1O)Cc1cc(C(C)(C)CC(C)(C)C)cc(c1O)C2
Response: label 0

Query: Same question for Nc1c(Br)c(=O)[nH]c(=O)n1COCCO please.
Response: label 0

Query: Entry to check: COc1ccccc1C1C(Cl)C(=O)N1NC(=O)Cc1ccccc1 (stereo not given)
Response: label 0

Query: Note, next up: O=C1C(c2ccccc2)=C(c2ccccc2)C(c2ccccc2)/C1=C1\C(=O)C(c2ccccc2)=C(c2ccccc2)C1c1ccccc1 (stereo not given)
Response: label 0

Query: Now give it for C[n+]1cn(CC(=O)c2ccccc2)c(C(N)=O)c1N too.
Response: label 0

Query: Another compound to check: CC1=CC2C(C=C1)S(=O)(=O)N1CC21c1ccccc1 (stereo not given)
Response: label 0

Query: Note, next up: O=C1C=C(c2c(O)ccc3ccccc23)c2ccccc2C1=O
Response: label 0

Query: Similarly, C[C@]12CCC(=O)C(O)=C1CCC2=O ?
Response: label 0

Query: Another: COc1ccc(C(O)c2cc(OC)c(OC)c(OC)c2)cc1 (stereo not given)
Response: label 0
